src = patent US20100267753A1

assay: Pharmacokinetics in mouse (IV bolus or oral dose); assay type: in vivo; details: mouse, plasma; mice, PO 10.8 mg/kg; read-out: Cmax-obs
reported.property: Cmax
For clarity, give the value followed by its unit.

Query :: Look up and state reported Cmax for C#Cc1cccc(Nc2nc3cc(C(=O)O)ccc3c3cncnc23)c1 [Compound 1]
Result :: 800 ng/mL

====

test: Pharmacokinetics in dog (IV bolus or oral dose); assay type: in vivo; details: plasma; Dog, 8.2 mg/kg PO, filled capsules; read-out: Terminal T1/2 (converted)
reported.property: half-life (h)
Give the value in h but do not write h after it.

Query :: Consider the molecule O=C(O)c1ccc2c(c1)nc(Nc1cccc(Cl)c1)c1ccncc12 and give its recorded half-life.
Result :: 5.2

====

assay: Pharmacokinetics in dog (IV bolus or oral dose); format: in vivo; details: plasma; Dog, 1.6 mg/kg IV, different lot
reported.property: Cmax (ng/mL)
Supply the numeric figure in ng/mL, leaving out any unit text.

Query :: Using the record for O=C(O)c1ccc2c(c1)nc(Nc1cccc(Cl)c1)c1ccncc12 , state its measured Cmax.
Result :: 4440

====

experiment: Pharmacokinetics in mouse (IV bolus or oral dose); format: in vivo; conditions: mouse, plasma, iv, 5.4 mg/kg, AUC(0-8 h), mice, IV 5.4 mg/kg
reported.property: AUC(0-t) (ng·h/mL)
Report the figure in ng·h/mL without appending any unit label.

Query :: Give me measured AUC(0-t), please, for this compound: C#Cc1cccc(Nc2nc3cc(C(=O)O)ccc3c3cncnc23)c1
Result :: 11200
